test system: P12-Ichikawa; assay: cell viability relative to DMSO control; higher = less cytotoxic; conditions: RPMI 5 mM glucose + 10% FBS; 48 h; 0.19 µM

# compound, cell viability
data = [
    ("CCCCN(CCCC)C(=O)CN1C[C@H](c2ccc3c(c2)OCO3)[C@@H](C(=O)O)[C@@H]1c1ccc(OC)cc1", "122%"),
    ("CN(C)c1ccc(Nc2nc(N)n(C(=O)c3c(F)cccc3F)n2)cc1", "126%"),
    ("CCN(C)C(=O)Oc1cccc([C@H](C)N(C)C)c1", "102%"),
    ("O=C1NC(=O)/C(=C/c2cccc(C(F)(F)F)c2)S1", "94.8%"),
    ("CCCCCCCCCCCCCCCCCCOP(=O)([O-])OC1CC[N+](C)(C)CC1", "111%"),
    ("CC(C)NCC(O)c1ccc(NS(C)(=O)=O)cc1 (configuration not stated)", "110%"),
    ("CC(C)C[C@H](NC(=O)[C@H](Cc1ccccc1)NC(=O)c1cnccn1)B(O)O", "2.56%"),
]

====

test system: P12-Ichikawa; test: cell viability relative to DMSO control; higher = less cytotoxic; details: HPLM + 10% dialyzed FBS; 48 h; 5.12 µM
cell viability by entry:
measuredParameter: cell viability

# molecule, measuredParameter, reported
data = [
    ("CO[C@H]1C[C@@H]2CC[C@@H](C)[C@@](O)(O2)C(=O)C(=O)N2CCCC[C@H]2C(=O)O[C@H]([C@H](C)C[C@@H]2CC[C@@H](OCCO)[C@H](OC)C2)CC(=O)[C@H](C)/C=C(/C)[C@@H](O)[C@@H](OC)C(=O)[C@H](C)C[C@H](C)\\C=C/C=C\\C=C/1C", "cell viability", "76.7%"),
    ("COC1(C[S+]([O-])c2ccccc2)CCN(CCc2c[nH]c3ccc(F)cc23)CC1 (stereo not given)", "cell viability", "102%"),
    ("CN(C)C[C@@H]1CC[N]2C=C(C3=C2C=CC=C3)C/4=C(/C(=O)NC4=O)C5=C[N](CCO1)C6=C5C=CC=C6", "cell viability", "101%"),
    ("OCCCNc1cc(-c2ccnc(Nc3cccc(Cl)c3)n2)ccn1", "cell viability", "10.3%"),
    ("CC1(C)CC(O)CC(C)(C)N1[O]", "cell viability", "120%"),
    ("COc1cccc2c1C(=O)c1c(O)c3c(c(O)c1C2=O)C[C@@](O)(C(C)=O)C[C@@H]3O[C@H]1C[C@H](N)[C@H](O)[C@H](C)O1", "cell viability", "8.25%"),
    ("O=c1[nH]cnc2c1ncn2[C@H]1CC[C@@H](CO)O1", "cell viability", "105%"),
    ("COc1ccc2c(c1OC)CN1CCc3cc4c(cc3C1C2)OCO4 (stereo not given)", "cell viability", "15.9%"),
    ("COc1cc(-c2nn(C3CCC(N4CCN(C(C)=O)CC4)CC3)c3ncnc(N)c23)ccc1NC(=O)c1cc2ccccc2n1C (stereo not given)", "cell viability", "103%"),
    ("N\\C1=N\\C2=C(N=C[N]2COC(CO)CO)C(=O)N1", "cell viability", "119%"),
    ("C[C@@H]1C[C@H]2[C@@H]3CC\\C4=C\\C(=O)\\C=C/[C@]4(C)[C@@]3(Cl)[C@@H](O)C[C@]2(C)[C@@]1(OC(=O)C5=CC=CO5)C(=O)CCl", "cell viability", "57.9%"),
    ("Cc1[nH]c(/C=C2\\C(=O)Nc3ccc([S+](=O)([O-])Cc4c(Cl)cccc4Cl)cc32)c(C)c1C(=O)N1CCC[C@@H]1CN1CCCC1", "cell viability", "91.5%"),
    ("CCOC(=O)[C@H](CCc1ccccc1)N[C@@H](C)C(=O)N1[C@H](C(=O)O)C[C@@H]2CCC[C@@H]21", "cell viability", "122%"),
    ("CO[C@@H]1C(N(C)C(=O)c2ccccc2)C[C@H]2O[C@]1(C)n1c3ccccc3c3c4c(c5c6ccccc6n2c5c31)C(=O)NC4=O (stereo not given in full)", "cell viability", "90%"),
    ("CN[S+](=O)([O-])CCc1ccc2[nH]cc(C3CCN(C)CC3)c2c1", "cell viability", "112%"),
    ("COc1cc(OC)c(NC(=O)Nc2cc(C)on2)cc1Cl", "cell viability", "107%"),
    ("COC[C@H]1OC(=O)C2=COC3=C2[C@@]1(C)\\C4=C(\\[C@@H]5CC[C@H](O)[C@@]5(C)C[C@H]4OC(C)=O)C3=O", "cell viability", "121%"),
    ("Cc1ccc(C(=O)c2cc(O)c(O)c([N+](=O)[O-])c2)cc1", "cell viability", "90.9%"),
    ("CC(C)NCC(O)COc1ccc(CCOCC2CC2)cc1 (stereo not given)", "cell viability", "111%"),
    ("CCCCCCCCCCCCCCCCCCOP(=O)([O-])OC1CC[N+](C)(C)CC1", "cell viability", "106%"),
]
